details: in isopropanol, 343.45 K
endpoint.label: solubility (mole fraction)
Answers are plain numbers.

Look up solubility (mole fraction): `CN(C)CCn1[nH]nnc1=S`
0.000144

---

conditions: in n-butanol, 313.05 K
endpoint.label: solubility (mole fraction)
Give bare numbers.

Look up solubility (mole fraction): `CN(C)CCn1[nH]nnc1=S`
9.47e-05

---

details: in DMF, 308.38 K
endpoint.label: solubility (mole fraction)
One number for each entry.

Look up solubility (mole fraction): `CN(C)CCn1[nH]nnc1=S`
0.00122

---

settings: in isopropanol, 313.25 K
endpoint.label: solubility (mole fraction)
One number for each entry.

Look up solubility (mole fraction): `CN(C)CCn1[nH]nnc1=S`
6.15e-05

---

settings: in water, 323.35 K
endpoint.label: solubility (mole fraction)
Numbers only.

Look up solubility (mole fraction): `CN(C)CCn1[nH]nnc1=S`
0.0161

---

settings: in n-propanol, 303.25 K
endpoint.label: solubility (mole fraction)
Answers are plain numbers.

Look up solubility (mole fraction): `CN(C)CCn1[nH]nnc1=S`
8.52e-05

---

settings: in n-butanol, 318.28 K
endpoint.label: solubility (mole fraction)

Look up solubility (mole fraction): `CN(C)CCn1[nH]nnc1=S`
0.000103

---

settings: in n-propanol, 323.2 K
endpoint.label: solubility (mole fraction)
Numbers only.

Look up solubility (mole fraction): `CN(C)CCn1[nH]nnc1=S`
0.000161

---

conditions: in n-propanol, 328.34 K
endpoint.label: solubility (mole fraction)
Answers are plain numbers.

Look up solubility (mole fraction): `CN(C)CCn1[nH]nnc1=S`
0.000176

---

settings: in isopropanol, 323.25 K
endpoint.label: solubility (mole fraction)
One number for each entry.

Look up solubility (mole fraction): `CN(C)CCn1[nH]nnc1=S`
7.96e-05

---

conditions: in water, 313.35 K
endpoint.label: solubility (mole fraction)
One number for each entry.

Look up solubility (mole fraction): `CN(C)CCn1[nH]nnc1=S`
0.0101

---

conditions: in methanol, 323.25 K
endpoint.label: solubility (mole fraction)
Numbers only.

Look up solubility (mole fraction): `CN(C)CCn1[nH]nnc1=S`
0.000414

---

details: in sec-butanol, 313.15 K
endpoint.label: solubility (mole fraction)

Look up solubility (mole fraction): `CN(C)CCn1[nH]nnc1=S`
4.84e-05

---

conditions: in n-butanol, 343.1 K
endpoint.label: solubility (mole fraction)
One number for each entry.

Look up solubility (mole fraction): `CN(C)CCn1[nH]nnc1=S`
0.000179

---

conditions: in water, 333.35 K
endpoint.label: solubility (mole fraction)
Numbers only.

Look up solubility (mole fraction): `CN(C)CCn1[nH]nnc1=S`
0.0246

---

conditions: in isopropanol, 318.2 K
endpoint.label: solubility (mole fraction)

Look up solubility (mole fraction): `CN(C)CCn1[nH]nnc1=S`
6.96e-05

---

conditions: in sec-butanol, 323 K
endpoint.label: solubility (mole fraction)
Give bare numbers.

Look up solubility (mole fraction): `CN(C)CCn1[nH]nnc1=S`
7.52e-05

---

conditions: in sec-butanol, 330.85 K
endpoint.label: solubility (mole fraction)
Give bare numbers.

Look up solubility (mole fraction): `CN(C)CCn1[nH]nnc1=S`
0.00011

---

details: in water, 343.3 K
endpoint.label: solubility (mole fraction)

Look up solubility (mole fraction): `CN(C)CCn1[nH]nnc1=S`
0.0371

---

details: in water, 293.15 K
endpoint.label: solubility (mole fraction)

Look up solubility (mole fraction): `CN(C)CCn1[nH]nnc1=S`
0.00421

---

conditions: in n-butanol, 298.21 K
endpoint.label: solubility (mole fraction)
Numbers only.

Look up solubility (mole fraction): `CN(C)CCn1[nH]nnc1=S`
6.93e-05

---

settings: in ethanol, 327.45 K
endpoint.label: solubility (mole fraction)
Numbers only.

Look up solubility (mole fraction): `CN(C)CCn1[nH]nnc1=S`
0.000156

---

conditions: in n-butanol, 328.14 K
endpoint.label: solubility (mole fraction)
Answers are plain numbers.

Look up solubility (mole fraction): `CN(C)CCn1[nH]nnc1=S`
0.000126

---

details: in methanol, 308.2 K
endpoint.label: solubility (mole fraction)

Look up solubility (mole fraction): `CN(C)CCn1[nH]nnc1=S`
0.000254

---

settings: in n-butanol, 323 K
endpoint.label: solubility (mole fraction)
Give bare numbers.

Look up solubility (mole fraction): `CN(C)CCn1[nH]nnc1=S`
0.000112

---

details: in n-propanol, 298.14 K
endpoint.label: solubility (mole fraction)
Answers are plain numbers.

Look up solubility (mole fraction): `CN(C)CCn1[nH]nnc1=S`
7.34e-05

---

settings: in DMF, 293.45 K
endpoint.label: solubility (mole fraction)
One number for each entry.

Look up solubility (mole fraction): `CN(C)CCn1[nH]nnc1=S`
0.000803

---

conditions: in n-propanol, 293.17 K
endpoint.label: solubility (mole fraction)
One number for each entry.

Look up solubility (mole fraction): `CN(C)CCn1[nH]nnc1=S`
5.79e-05

---

settings: in methanol, 333.15 K
endpoint.label: solubility (mole fraction)

Look up solubility (mole fraction): `CN(C)CCn1[nH]nnc1=S`
0.000571

---

details: in DMF, 298.34 K
endpoint.label: solubility (mole fraction)
Give bare numbers.

Look up solubility (mole fraction): `CN(C)CCn1[nH]nnc1=S`
0.000875

---

conditions: in isopropanol, 338.32 K
endpoint.label: solubility (mole fraction)
Give bare numbers.

Look up solubility (mole fraction): `CN(C)CCn1[nH]nnc1=S`
0.000123

---

settings: in ethanol, 293.25 K
endpoint.label: solubility (mole fraction)
Answers are plain numbers.

Look up solubility (mole fraction): `CN(C)CCn1[nH]nnc1=S`
5.34e-05

---

settings: in ethanol, 302.95 K
endpoint.label: solubility (mole fraction)
Numbers only.

Look up solubility (mole fraction): `CN(C)CCn1[nH]nnc1=S`
7.31e-05

---

details: in n-propanol, 313.15 K
endpoint.label: solubility (mole fraction)
Numbers only.

Look up solubility (mole fraction): `CN(C)CCn1[nH]nnc1=S`
0.000127

---

conditions: in DMF, 313.25 K
endpoint.label: solubility (mole fraction)
Answers are plain numbers.

Look up solubility (mole fraction): `CN(C)CCn1[nH]nnc1=S`
0.00146

---

settings: in water, 303.15 K
endpoint.label: solubility (mole fraction)

Look up solubility (mole fraction): `CN(C)CCn1[nH]nnc1=S`
0.00636

---

conditions: in n-butanol, 338.12 K
endpoint.label: solubility (mole fraction)
One number for each entry.

Look up solubility (mole fraction): `CN(C)CCn1[nH]nnc1=S`
0.000158

---

settings: in sec-butanol, 318.12 K
endpoint.label: solubility (mole fraction)

Look up solubility (mole fraction): `CN(C)CCn1[nH]nnc1=S`
6.19e-05

---

settings: in sec-butanol, 335.57 K
endpoint.label: solubility (mole fraction)
Numbers only.

Look up solubility (mole fraction): `CN(C)CCn1[nH]nnc1=S`
0.000133

---

details: in n-butanol, 308.14 K
endpoint.label: solubility (mole fraction)

Look up solubility (mole fraction): `CN(C)CCn1[nH]nnc1=S`
8.49e-05

---

details: in water, 318.28 K
endpoint.label: solubility (mole fraction)
Numbers only.

Look up solubility (mole fraction): `CN(C)CCn1[nH]nnc1=S`
0.0127

---

conditions: in methanol, 328.23 K
endpoint.label: solubility (mole fraction)
Answers are plain numbers.

Look up solubility (mole fraction): `CN(C)CCn1[nH]nnc1=S`
0.000485

---

conditions: in n-butanol, 303.35 K
endpoint.label: solubility (mole fraction)

Look up solubility (mole fraction): `CN(C)CCn1[nH]nnc1=S`
7.66e-05

---

details: in n-butanol, 293.15 K
endpoint.label: solubility (mole fraction)
One number for each entry.

Look up solubility (mole fraction): `CN(C)CCn1[nH]nnc1=S`
6.11e-05

---

conditions: in isopropanol, 333.35 K
endpoint.label: solubility (mole fraction)
Numbers only.

Look up solubility (mole fraction): `CN(C)CCn1[nH]nnc1=S`
0.000106

---

conditions: in methanol, 293.05 K
endpoint.label: solubility (mole fraction)

Look up solubility (mole fraction): `CN(C)CCn1[nH]nnc1=S`
0.000156

---

settings: in water, 338.21 K
endpoint.label: solubility (mole fraction)
Numbers only.

Look up solubility (mole fraction): `CN(C)CCn1[nH]nnc1=S`
0.0303

---

settings: in n-propanol, 308.12 K
endpoint.label: solubility (mole fraction)
Numbers only.

Look up solubility (mole fraction): `CN(C)CCn1[nH]nnc1=S`
0.000107

---

settings: in isopropanol, 303.35 K
endpoint.label: solubility (mole fraction)
Answers are plain numbers.

Look up solubility (mole fraction): `CN(C)CCn1[nH]nnc1=S`
4.8e-05

---

settings: in sec-butanol, 327.33 K
endpoint.label: solubility (mole fraction)
Give bare numbers.

Look up solubility (mole fraction): `CN(C)CCn1[nH]nnc1=S`
9.18e-05

---

settings: in sec-butanol, 308.24 K
endpoint.label: solubility (mole fraction)
Answers are plain numbers.

Look up solubility (mole fraction): `CN(C)CCn1[nH]nnc1=S`
4.36e-05
